Tested on: spiral strips of the pulmonary artery of the guinea pig
Experiment: relaxant effect on potassium-depolarized, CaCl2-contracted spiral strips of the pulmonary artery of the guinea pig
Conditions: Cavia porcellus, 40 mmol/l potassium, contraction by 0.5 mmol/l CaCl2, cumulative addition, average value of 4 to 6 vessel strips, read-out: IC50: concentration of the test substance which inhibits the contraction by 50%
Counter-ions that a name gives are not always drawn.
quantity-name: IC50 (nM)

compound | experimental-result
N=c1o[n-][n+](N2CCOCC2)c1CSCc1ccccc1 [Example 7, hydrochloride] | 700
CC1CCCC(C)N1[n+]1[n-]oc(=N)c1CSCc1ccccc1 (stereo not shown) [Example 8, hydrochloride] | 800
CC1CCCC(C)N1[n+]1[n-]oc(=N)c1COc1ccccc1 (stereo not shown) [Example 13, hydrochloride] | 2000

1: CC1CCCC(C)N1[n+]1[n-]oc(=N)c1CSc1ccccc1 (stereo not shown) [Example 5, hydrochloride]
2: CC1CCCC(C)N1[n+]1noc([N-]C(=O)c2ccccc2)c1CSCc1ccccc1 (stereo not shown) [Example 10]
3: CC(CSCc1ccccc1)c1c(=N)o[n-][n+]1N1CCOCC1 (stereo not shown) [Example 12, hydrochloride]
Put the entries in order of IC50, starting with the largest number. Provide the labels, sequenced as the question asks.
2, 1, 3
(2: 2000 nM, 1: 1100 nM, 3: 500 nM)
